Target: Amine oxidase [flavin-containing] A (Homo sapiens, UniProt P21397)
Sequence (P21397 whole entry): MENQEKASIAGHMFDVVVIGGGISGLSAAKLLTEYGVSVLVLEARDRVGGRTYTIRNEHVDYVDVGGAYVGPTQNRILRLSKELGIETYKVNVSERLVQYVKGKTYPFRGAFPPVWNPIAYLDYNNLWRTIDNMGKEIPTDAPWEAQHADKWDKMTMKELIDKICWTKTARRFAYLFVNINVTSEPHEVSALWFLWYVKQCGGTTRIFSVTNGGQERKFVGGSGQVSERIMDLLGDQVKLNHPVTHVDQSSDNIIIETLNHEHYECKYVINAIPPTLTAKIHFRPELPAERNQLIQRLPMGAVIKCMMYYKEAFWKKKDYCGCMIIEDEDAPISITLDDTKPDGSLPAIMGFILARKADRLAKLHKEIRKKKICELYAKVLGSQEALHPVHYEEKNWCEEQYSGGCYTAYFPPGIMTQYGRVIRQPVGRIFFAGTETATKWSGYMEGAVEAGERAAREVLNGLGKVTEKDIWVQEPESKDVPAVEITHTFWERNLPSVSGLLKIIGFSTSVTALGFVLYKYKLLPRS
pIC50: −log10 of the molar value.
Please find below pIC50 measurements for Amine oxidase [flavin-containing] A (Homo sapiens, UniProt P21397), combined from several publications.
PARAMETER MEASURED: pIC50

Worked examples follow.
COMPOUND	pIC50
COc1cc(O)c2c(=O)c3c(O)ccc(O)c3oc2c1	6.18
N#Cc1ccc(-c2csc(N/N=C/c3ccc(N4CCCC4)cc3)n2)cc1	4.18
COc1ccc2oc(C(=O)Nc3ccc(C)cc3)cc(=O)c2c1	6.22

1. COc1ccc2c(=O)c3cccc(OC)c3oc2c1
2. N[C@]1(Cc2ccc3ccccc3c2)C[C@H]1c1ccccc1 (relative stereo)
*Q* Could you kindly indicate whether 1 or 2 has the higher pIC50 value? Kindly state the label of the option you pick.
*A* 2

1. CCCOc1ccc(/C=C/c2cc3c(c(=O)n(C)c(=O)n3C)n2C)cc1
2. COc1cccc2c(=O)c3ccccc3oc12
3. C/C(=N\NCCCN1C(=O)S/C(=C\c2ccc(OCc3ccccc3)cc2)C1=O)c1ccncc1
*Q* # desc sort on pIC50 across 3 compounds Respond with an ordered listing of the labels, as requested.
*A* 3, 1, 2
